Each record here notes measured shrunken log2 fold change.
# Test system: Escherichia coli TOP10;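 note: peptides expressed intracellularly from a pBAD plasmid library in pooled LB shake-flask culture, induced with 0.3% L-arabinose, DNA abundance read by NGS, three biological replicates, DESeq2 with apeglm shrinkage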
# TEST_DESCRIPTION: shrunken log2 fold change of peptide-encoding DNA abundance (4.5 h post-induction vs induction); higher = less antimicrobial activity (less host growth inhibition)
# DETAILS: time post-induction: 4.5 h; library: site-saturation at positions 5, 18, 19, 20
VALUE_TYPE: shrunken log2 fold change

SEQUENCE_ENTRY: RRIRPRPPRLPRPRPRPIARPRP
SUBJECT_OF_TEST: Escherichia coli TOP10
VALUE_TYPE: shrunken log2 fold change
VALUE_MEASURED: -0.0116
--
SEQUENCE_ENTRY: RRIRDRPPRLPRPRPRPEMPPRP
SUBJECT_OF_TEST: Escherichia coli TOP10
VALUE_TYPE: shrunken log2 fold change
VALUE_MEASURED: 0.0164
--
SEQUENCE_ENTRY: RRIRFRPPRLPRPRPRPFGFPRP
SUBJECT_OF_TEST: Escherichia coli TOP10
VALUE_TYPE: shrunken log2 fold change
VALUE_MEASURED: -0.436
--
SEQUENCE_ENTRY: RRIRSRPPRLPRPRPRPDNIPRP
SUBJECT_OF_TEST: Escherichia coli TOP10
VALUE_TYPE: shrunken log2 fold change
VALUE_MEASURED: -0.347
--
SEQUENCE_ENTRY: RRIRYRPPRLPRPRPRPGQAPRP
SUBJECT_OF_TEST: Escherichia coli TOP10
VALUE_TYPE: shrunken log2 fold change
VALUE_MEASURED: 0.0475
--
SEQUENCE_ENTRY: RRIRHRPPRLPRPRPRPTAHPRP
SUBJECT_OF_TEST: Escherichia coli TOP10
VALUE_TYPE: shrunken log2 fold change
VALUE_MEASURED: -0.173
--
SEQUENCE_ENTRY: RRIRYRPPRLPRPRPRPVTGPRP
SUBJECT_OF_TEST: Escherichia coli TOP10
VALUE_TYPE: shrunken log2 fold change
VALUE_MEASURED: -0.213
--
SEQUENCE_ENTRY: RRIRLRPPRLPRPRPRPFIHPRP
SUBJECT_OF_TEST: Escherichia coli TOP10
VALUE_TYPE: shrunken log2 fold change
VALUE_MEASURED: -0.807
--
SEQUENCE_ENTRY: RRIRSRPPRLPRPRPRPNEGPRP
SUBJECT_OF_TEST: Escherichia coli TOP10
VALUE_TYPE: shrunken log2 fold change
VALUE_MEASURED: -0.0691
--
SEQUENCE_ENTRY: RRIRSRPPRLPRPRPRPYFDPRP
SUBJECT_OF_TEST: Escherichia coli TOP10
VALUE_TYPE: shrunken log2 fold change
VALUE_MEASURED: -0.597
--
SEQUENCE_ENTRY: RRIRMRPPRLPRPRPRPNRIPRP
SUBJECT_OF_TEST: Escherichia coli TOP10
VALUE_TYPE: shrunken log2 fold change
VALUE_MEASURED: -0.18
--
SEQUENCE_ENTRY: RRIRQRPPRLPRPRPRPIEAPRP
SUBJECT_OF_TEST: Escherichia coli TOP10
VALUE_TYPE: shrunken log2 fold change
VALUE_MEASURED: -0.00454
--
SEQUENCE_ENTRY: RRIRPRPPRLPRPRPRPNWAPRP
SUBJECT_OF_TEST: Escherichia coli TOP10
VALUE_TYPE: shrunken log2 fold change
VALUE_MEASURED: 0.176
--
SEQUENCE_ENTRY: RRIRGRPPRLPRPRPRPVWMPRP
SUBJECT_OF_TEST: Escherichia coli TOP10
VALUE_TYPE: shrunken log2 fold change
VALUE_MEASURED: -0.117
--
SEQUENCE_ENTRY: RRIRGRPPRLPRPRPRPQWIPRP
SUBJECT_OF_TEST: Escherichia coli TOP10
VALUE_TYPE: shrunken log2 fold change
VALUE_MEASURED: 0.518
--
SEQUENCE_ENTRY: RRIRIRPPRLPRPRPRPISFPRP
SUBJECT_OF_TEST: Escherichia coli TOP10
VALUE_TYPE: shrunken log2 fold change
VALUE_MEASURED: 0.00109
--
SEQUENCE_ENTRY: RRIRARPPRLPRPRPRPVQQPRP
SUBJECT_OF_TEST: Escherichia coli TOP10
VALUE_TYPE: shrunken log2 fold change
VALUE_MEASURED: 0.954
--
SEQUENCE_ENTRY: RRIRRRPPRLPRPRPRPKDHPRP
SUBJECT_OF_TEST: Escherichia coli TOP10
VALUE_TYPE: shrunken log2 fold change
VALUE_MEASURED: 0.0887
--
SEQUENCE_ENTRY: RRIRLRPPRLPRPRPRPALDPRP
SUBJECT_OF_TEST: Escherichia coli TOP10
VALUE_TYPE: shrunken log2 fold change
VALUE_MEASURED: 0.396
--
SEQUENCE_ENTRY: RRIRERPPRLPRPRPRPRIPPRP
SUBJECT_OF_TEST: Escherichia coli TOP10
VALUE_TYPE: shrunken log2 fold change
VALUE_MEASURED: -0.269
--
SEQUENCE_ENTRY: RRIRGRPPRLPRPRPRPEICPRP
SUBJECT_OF_TEST: Escherichia coli TOP10
VALUE_TYPE: shrunken log2 fold change
VALUE_MEASURED: 1.73
--
SEQUENCE_ENTRY: RRIRGRPPRLPRPRPRPCGRPRP
SUBJECT_OF_TEST: Escherichia coli TOP10
VALUE_TYPE: shrunken log2 fold change
VALUE_MEASURED: 0.799
--
SEQUENCE_ENTRY: RRIRKRPPRLPRPRPRPFVCPRP
SUBJECT_OF_TEST: Escherichia coli TOP10
VALUE_TYPE: shrunken log2 fold change
VALUE_MEASURED: 0.0717
--
SEQUENCE_ENTRY: RRIRKRPPRLPRPRPRPQQNPRP
SUBJECT_OF_TEST: Escherichia coli TOP10
VALUE_TYPE: shrunken log2 fold change
VALUE_MEASURED: 0.157
--
SEQUENCE_ENTRY: RRIRMRPPRLPRPRPRPEFNPRP
SUBJECT_OF_TEST: Escherichia coli TOP10
VALUE_TYPE: shrunken log2 fold change
VALUE_MEASURED: 0.301
--
SEQUENCE_ENTRY: RRIRGRPPRLPRPRPRPRMTPRP
SUBJECT_OF_TEST: Escherichia coli TOP10
VALUE_TYPE: shrunken log2 fold change
VALUE_MEASURED: 1.26
--
SEQUENCE_ENTRY: RRIRVRPPRLPRPRPRPKALPRP
SUBJECT_OF_TEST: Escherichia coli TOP10
VALUE_TYPE: shrunken log2 fold change
VALUE_MEASURED: 0.0497
--
SEQUENCE_ENTRY: RRIRLRPPRLPRPRPRPWIAPRP
SUBJECT_OF_TEST: Escherichia coli TOP10
VALUE_TYPE: shrunken log2 fold change
VALUE_MEASURED: 0.0439
--
SEQUENCE_ENTRY: RRIRERPPRLPRPRPRPQQVPRP
SUBJECT_OF_TEST: Escherichia coli TOP10
VALUE_TYPE: shrunken log2 fold change
VALUE_MEASURED: -0.0841
--
SEQUENCE_ENTRY: RRIRGRPPRLPRPRPRPSWHPRP
SUBJECT_OF_TEST: Escherichia coli TOP10
VALUE_TYPE: shrunken log2 fold change
VALUE_MEASURED: 0.0802
--
SEQUENCE_ENTRY: RRIRCRPPRLPRPRPRPGANPRP
SUBJECT_OF_TEST: Escherichia coli TOP10
VALUE_TYPE: shrunken log2 fold change
VALUE_MEASURED: 0.385
--
SEQUENCE_ENTRY: RRIRMRPPRLPRPRPRPWIDPRP
SUBJECT_OF_TEST: Escherichia coli TOP10
VALUE_TYPE: shrunken log2 fold change
VALUE_MEASURED: -0.146
